Reference source: PubChem BioAssay (NCI)

# Test system: MOLT-4 leukemia
# method.description: NCI-60 one-dose screen, 48 h
# condition.details: 10 µM unless noted
# Method: Growth inhibition of the MOLT-4 human tumor cell line is measured as a screen for anti-cancer activity. Cells are grown in 96 well plates and exposed to the test compound for 48 hours. Compounds are tested at a single concentration, which is 10^-5 M for most compounds. The reported endpoint is percent growth (GI% or GIPRCNT), where numbers from 0 - 100% represent growth inhibition, and numbers from -100% - 0 represent cell death. For example, a value of 40 represents 60% growth inhibition. […]
About 83,000 compounds went through this panel and 20% of them were active in at least one assay; those are over-represented in the sample as a whole. Calls of active or inactive are those of the source. Rule for the calls: active = growth percent below 10; inactive = the rest.
Pick one: active, inactive

[
  {
    "compound": "C=C(C)[C@H]1CC/C(C)=C/CC[C@]2(C)O[C@H]2CC/C(COC(C)=O)=C\\C1=O",
    "experimental.system": "MOLT-4 leukemia",
    "answer.label": "inactive"
  },
  {
    "compound": "O=C1NC(=O)/C(=C\\c2ccccc2)C2=C1CCCC2",
    "experimental.system": "MOLT-4 leukemia",
    "answer.label": "inactive"
  }
]

Here's the next entry for you.
Query string: How was O=C1N(C2CCCCC2)C(=O)N1C1CCCCC1 classified in this test?
Result string: inactive
